- experimentalTarget: HLA-A*69:01
- experimentDescription: IEDB peptide-MHC binding, purified MHC/direct/fluorescence; filed as Kd, often an IC50 or EC50 that approximates it; bounds were set here for any values at or beyond the usual limits of such assays
- experimentalContext: source organism: Bacillus cereus
property: pKd
Lab note — pKd values are minus log10 of concentrations in M.

Give the measured pKd of GIYCTVPFI .
6.41

---

- experimentalTarget: HLA-B*51:01
- experimentDescription: IEDB peptide-MHC binding, purified MHC/competitive/radioactivity; filed as Kd, often an IC50 or EC50 that approximates it; bounds were set here for any values at or beyond the usual limits of such assays
- experimentalContext: source organism: Lassa virus Josiah
property: Kd (nM)
Express it in nM; write the number only.

Give the measured Kd of WPYIASRTSI .
45.8

---

- experimentalTarget: HLA-B*44:03
- experimentDescription: IEDB peptide-MHC binding, purified MHC/competitive/radioactivity; filed as Kd, often an IC50 or EC50 that approximates it; bounds were set here for any values at or beyond the usual limits of such assays
- experimentalContext: source organism: Dengue virus 3 Singapore/8120/1995
property: pKd
Lab note — pKd values are minus log10 of concentrations in M.

Query pKd on HLA-B*44:03 for KETACLGKAY
6.91

---

- experimentalTarget: HLA-B*27:05
- experimentDescription: IEDB peptide-MHC binding, purified MHC/direct/fluorescence; filed as Kd, often an IC50 or EC50 that approximates it; bounds were set here for any values at or beyond the usual limits of such assays
- experimentalContext: source organism: Giardia intestinalis
property: Kd

Give the measured Kd of LEKWNLGII .
≥ 20 µM

---

- experimentalTarget: HLA-A*26:01
- experimentDescription: IEDB peptide-MHC binding, purified MHC/direct/fluorescence; filed as Kd, often an IC50 or EC50 that approximates it; bounds were set here for any values at or beyond the usual limits of such assays
- experimentalContext: source organism: Rickettsia conorii
property: Kd

Give the measured Kd of RTGDIGCFK .
≥ 20 µM

---

- experimentalTarget: HLA-B*39:01
- experimentDescription: IEDB peptide-MHC binding, purified MHC/direct/fluorescence; filed as Kd, often an IC50 or EC50 that approximates it; bounds were set here for any values at or beyond the usual limits of such assays
- experimentalContext: source organism: Ebola virus - Mayinga, Zaire, 1976
pKd: −log10 of the molar value.
property: pKd

Give the measured pKd of SRTPSGKRL .
≤ 4.70

---

- experimentalTarget: HLA-A*01:01
- experimentDescription: IEDB peptide-MHC binding, purified MHC/direct/fluorescence; filed as Kd, often an IC50 or EC50 that approximates it; bounds were set here for any values at or beyond the usual limits of such assays
- experimentalContext: source organism: Ebola virus - Mayinga, Zaire, 1976
property: Kd

Give the measured Kd of SRTPSGKRL .
≥ 20 µM

---

- experimentalTarget: HLA-B*15:01
- experimentDescription: IEDB peptide-MHC binding, purified MHC/competitive/fluorescence; filed as Kd, often an IC50 or EC50 that approximates it; bounds were set here for any values at or beyond the usual limits of such assays
- experimentalContext: source organism: Vibrio vulnificus YJ016
property: Kd

Give the measured Kd of DFISMYFPW .
≥ 20 µM

---

- experimentalTarget: HLA-A*68:02
- experimentDescription: IEDB peptide-MHC binding, purified MHC/competitive/fluorescence; filed as Kd, often an IC50 or EC50 that approximates it; bounds were set here for any values at or beyond the usual limits of such assays
- experimentalContext: source organism: Salmonella enterica subsp. enterica serovar Typhi
property: pKd
Lab note — pKd values are minus log10 of concentrations in M.

Give the measured pKd of WVVDQNGRV .
7.75

Origin of values: the Immune Epitope Database (IEDB)
